Test system: HCT-15 colon
TEST_NAME: NCI tumour cell line growth inhibition, 48 h
MEASURE_NAME: TGI

These recorded examples may help you get a feel for the data.
1) O=C1NC2(CCCCC2)C2CCCCCC12 (stereo unspecified)    > 100 µM
2) O=c1[nH]cnc2[nH]ncc12    > 5000 µM
3) COc1ccc(C(=O)c2cc3c(OC)c(OC)c(OC)cc3[nH]2)cc1    > 100 µM

The compound listed as NC(=O)c1ccc2c(c1)S(=O)(=O)c1ccccc1C2=O shows TGI equal to > 100 µM

The compound listed as Cc1c2c[n+](C(C)C)ccc2c(C)c2c1[nH]c1ccccc12 shows TGI equal to > 100 µM

The compound listed as CC(C)(C)C1(COC(=O)c2ccc(N)cc2)COC1 shows TGI equal to > 100 µM

The compound listed as CN1CC(C(=O)C2C(=O)c3ccccc3C2=O)C(=O)C(=O)C(C(=O)C2C(=O)c3ccccc3C2=O)C1 (stereo unspecified) shows TGI equal to > 100 µM

The compound listed as O=C(Nc1ccc(Cl)cc1)c1cc(-c2ccc(Cl)cc2)c2sc(=O)[nH]c2n1 shows TGI equal to 9.54 µM

---

Tested on: MCF7 breast
TEST_NAME: NCI tumour cell line growth inhibition, 48 h
Below, each entry is listed alongside its reported TGI.
Number only, in µM; omit the unit.

The molecule listed as COc1ccc2c(c1)C(=O)/C(=C/c1ncc([N+](=O)[O-])n1C)O2 shows TGI equal to 7.98

The molecule listed as CCOC(=O)/C=C/C(C(=O)/C=C/c1ccc(O)c(OC)c1)=C(O)\C=C\c1ccc(O)c(OC)c1 shows TGI equal to 67.5

The molecule listed as CN1CCN(Cc2ccc(NC(=O)c3ccc(C#Cc4c(N)ncc5ccc(F)cc45)cc3)cc2C(F)(F)F)CC1 shows TGI equal to 1.59

The molecule listed as COc1cc(/C=C2\CN(C)C/C(=C\c3cc(CN4CCCCC4)c(O)c(OC)c3)C2=O)cc(CN2CCCCC2)c1O shows TGI equal to 13.9

The molecule listed as Cc1cc(-c2nc3ccccc3s2)ccc1NC(=O)[C@H](C)N shows TGI equal to 20.4

---

Below, each entry is listed alongside its reported TGI.
Test system: HCT-15 colon
TEST_NAME: NCI tumour cell line growth inhibition, 48 h
Number only, in µM; omit the unit.

The molecule listed as C=C(C)C(=O)[C@@]12C(=O)[C@@H](C)CC[C@H]1[C@H](C)C[C@@H]2C=C(C)C shows TGI equal to 73.5

The molecule listed as O=Nc1ccc2ccccc2c1O shows TGI equal to 30.8

The molecule listed as O=C(O)c1cc2cc(OCc3ccccc3)c(OCc3ccccc3)cc2[nH]1 shows TGI equal to 36.4

The molecule listed as C=C1C(=O)O[C@H]2[C@H]1CC/C(COC(=O)CSCC(=O)OC/C1=C/CC[C@@]3(C)O[C@H]3[C@H]3OC(=O)C(=C)[C@@H]3CC1)=C\CC[C@@]1(C)O[C@@H]21 shows TGI equal to 2.69

The molecule listed as CCCCCCCCCCCCCCCCCCNc1ccn(C2OC(COP(=O)(O)OCC3OC(n4cc(C)c(=O)[nH]c4=O)CC3N=[N+]=[N-])C(O)C2O)c(=O)n1 (centres undefined) shows TGI equal to 36.1

---

Test system: PC-3 prostate
TEST_NAME: NCI tumour cell line growth inhibition, 48 h
Below, each entry is listed alongside its reported log10 of TGI.
Values are log10 of TGI in µM.

These recorded examples may help you get a feel for the data.
1) O=C(Nc1ccc(Cl)cc1)c1cc(-c2ccc(Cl)cc2)c2sc(=O)[nH]c2n1    1.09
2) CCCCCCCCCCCCCCCCCCNc1ccn(C2OC(COP(=O)(O)OCC3OC(n4cc(C)c(=O)[nH]c4=O)CC3N=[N+]=[N-])C(O)C2O)c(=O)n1 (stereo not given)    1.35
3) COc1ccc2nc3cc(Cl)ccc3c(NCCCNCCC(C)O)c2c1 (stereo not given)    0.37

The molecule listed as O=C(N/N=C/c1ccc([N+](=O)[O-])cc1)c1ccc2nc(-c3ccc(Cl)cc3)[nH]c2c1 shows log10 of TGI equal to 1.18

The molecule listed as CN(C)CCNC(=O)c1cccc2nc3c(nc12)-c1ccccc1C3=O shows log10 of TGI equal to 1.54

---

Test system: PC-3 prostate
TEST_NAME: NCI tumour cell line growth inhibition, 48 h
MEASURE_NAME: GI50

These recorded examples may help you get a feel for the data.
1) C=CC(=O)N[C@H]1CCOC[C@H]1Nc1ncc2cc(-c3c(Cl)c(OC)cc(OC)c3Cl)ccc2n1    14.8 µM
2) CCOC(=O)/C=C/C(C(=O)/C=C/c1ccc(O)c(OC)c1)=C(O)\C=C\c1ccc(O)c(OC)c1    12.8 µM
3) CN1CCN(Cc2ccc(NC(=O)c3ccc(C#Cc4c(N)ncc5ccc(F)cc45)cc3)cc2C(F)(F)F)CC1    0.834 µM
4) COc1ccc2nc3cc(Cl)ccc3c(NCCCNCCC(C)O)c2c1 (centres undefined)    0.496 µM

The molecule listed as CC(C)NC(=O)OCc1c(COC(=O)NC(C)C)c(-c2ccc(Cl)cc2)n2c1CCC2 shows GI50 equal to 3.32 µM

The molecule listed as C#CC(F)(F)[C@]1(O)CC[C@H]2[C@@H]3CCC4=CC(=O)CCC4=C3[C@@H](c3ccc(C(C)=O)cc3)C[C@@]21C shows GI50 equal to 10 µM

The molecule listed as Cc1ccc2c(O)c(O)cc(NC(C)CCCN)c2n1 (centres undefined) shows GI50 equal to 22.9 µM

The molecule listed as C=C1C(=O)O[C@H]2[C@H]1CC/C(COC(=O)CSCC(=O)OC/C1=C/CC[C@@]3(C)O[C@H]3[C@H]3OC(=O)C(=C)[C@@H]3CC1)=C\CC[C@@]1(C)O[C@@H]21 shows GI50 equal to 2.21 µM

The molecule listed as c1cn2cc(-c3ccc4cn[nH]c4c3)nc(Nc3ccc(N4CCOCC4)cc3)c2n1 shows GI50 equal to 14.7 µM

---

Test system: HOP-62 NSCLC
TEST_NAME: NCI tumour cell line growth inhibition, 48 h
MEASURE_NAME: TGI

These recorded examples may help you get a feel for the data.
1. CN(C)CCSC(=Nc1ccccc1)N1CCCCC1    > 100 µM
2. Cc1cc(S(=O)(=O)O)c(NC(=O)C(=O)C2C=CCS2(=O)=O)cc1Cl (centres undefined)    > 100 µM
3. COc1cccc(/C=N/[N-]C(N)=O)c1[O-].[Ni+2].[OH3+].c1cnc2c(c1)ccc1cccnc12    > 100 µM

The compound listed as O=C1C(Br)=CC2(C=C1Br)CCNC1=C2C(=O)c2cccnc2C1=O shows TGI equal to 21.3 µM

The compound listed as Cc1ccc(SC2=CC(=O)c3nc4ccccc4c4ccnc2c34)cc1 shows TGI equal to > 100 µM

The compound listed as C=CC(=O)N[C@H]1CCOC[C@H]1Nc1ncc2cc(-c3c(Cl)c(OC)cc(OC)c3Cl)ccc2n1 shows TGI equal to > 100 µM

The compound listed as COc1cc(/C=C2\CN(C)C/C(=C\c3cc(CN4CCCCC4)c(O)c(OC)c3)C2=O)cc(CN2CCCCC2)c1O shows TGI equal to 18.4 µM

The compound listed as COc1ccc2c(c1)C(=O)/C(=C/c1ncc([N+](=O)[O-])n1C)O2 shows TGI equal to 5.03 µM

The compound listed as C#Cc1c(C(N)=O)ncn1C1OC(COP(=O)(OCc2ccc([N+](=O)[O-])o2)N(C)CCCCCl)C(O)C1O (centres undefined) shows TGI equal to > 100 µM

---

Tested on: HL-60(TB) leukemia
TEST_NAME: NCI tumour cell line growth inhibition, 48 h
MEASURE_NAME: GI50

1) c1cn2cc(-c3ccc4cn[nH]c4c3)nc(Nc3ccc(N4CCOCC4)cc3)c2n1    > 100 µM
2) CC(=O)O/N=C1/C(c2c(O)[nH]c3cc(Br)ccc23)=Nc2ccccc21    1.88 µM

Here is another compound to look at.
The compound listed as COc1ccc(-n2c3c(c4c(CN5CCOCC5)c(O)ccc42)CCc2ccccc2C3=O)cc1 shows GI50 equal to 22.3 µM

---

Test system: OVCAR-3 ovarian
TEST_NAME: NCI tumour cell line growth inhibition, 48 h; in the data active = GI50 below about 0.43 µM; inactive = the rest
The categories you may choose from are active, inactive

Example cases with answers are listed next.
1. COc1ccc2c(c1)C(=O)/C(=C/c1ncc([N+](=O)[O-])n1C)O2    inactive
2. O=Nc1ccc2ccccc2c1O    inactive
3. O=C(Cc1cccc(OC(F)(F)F)c1)Nc1ccc(CCCCc2nnc(NC(=O)Cc3ccccn3)s2)nn1    inactive
4. C=C1C(=O)O[C@H]2[C@H]1CC/C(COC(=O)NCCc1c[nH]c3ccc(OC)cc13)=C\CC[C@@]1(C)O[C@@H]21    inactive
5. Cc1c(C)[n+](=O)c(C)c(C)n1[O-]    inactive

Query: Which outcome did this test record for the compound COc1ccc(-c2ccc(-c3ccc(-c4ccc(C(=N)N)cc4)s3)s2)cc1OC ?
Response: active

Query: Which outcome did this test record for the compound CC(=O)OCC1OC(OC2CC3C(C)(C)C(O)CC[C@]3(C)C3CCC45CC4(CC[C@H]5C(C)CC(O)C4OC4(C)C)[C@]23C)C(O)C(O)C1O (some centres undefined) ?
Response: inactive

Query: Which outcome did this test record for the compound COc1cccc2c1C(=O)c1c(O)c3c(c(O)c1C2=O)C[C@@](O)(C(=O)CO)C[C@@H]3OC1C[C@H](N)[C@H](O)[C@H](C)O1 (some centres undefined) ?
Response: active

Query: Which outcome did this test record for the compound Cc1ccc2c(O)c(O)cc(NC(C)CCCN)c2n1 (centres undefined) ?
Response: inactive

These measurements were taken from PubChem BioAssay (NCI).
